System: K-562 leukemia
Test: NCI-60 one-dose screen, 48 h (100 = growth as untreated, 0 = no growth, -100 = all killed)
Conditions: 10 µM unless noted
About 83,000 compounds went through this panel and 20% of them were active in at least one assay; those are over-represented in the sample as a whole. Calls of active or inactive are those of the source. Rule for the calls: active = growth percent below 10; inactive = the rest.
Reported growth values are given for each entry in this list.
result.type: growth

[[record]]
compound = "Nc1c(F)cc(-c2nc3cc(F)ccc3[se]2)cc1Br"
result_type = "growth"
result_value = "98.5% (inactive)"

[[record]]
compound = "COC(=O)[C@H](C[C@H](Cc1ccccc1)NC(=O)c1csc([C@@H](C[C@H](C(C)C)N(C)C(=O)[C@@H](NC(=O)[C@H]2CCCCN2C)C(C)C)OC(C)=O)n1)NC(=O)OCc1ccccc1"
result_type = "growth"
result_value = "5.76% [8.5 µM] (active)"

[[record]]
compound = "COc1cc2c(cc1OCc1ccccc1)C(CC(C)C)=[N+](C)CC2"
result_type = "growth"
result_value = "67.2% (inactive)"

[[record]]
compound = "NC(CCl)CCl"
result_type = "growth"
result_value = "116% (inactive)"

[[record]]
compound = "Cc1c(C)c([N+](=O)[O-])c(C)c(C)c1[N+](=O)[O-]"
result_type = "growth"
result_value = "102% (inactive)"

[[record]]
compound = "C[C@]12CCc3sc(-c4cccc(F)c4)nc3C1=CC[C@@H]1[C@@H]2CC[C@]2(C)C(=O)CC[C@@H]12"
result_type = "growth"
result_value = "7.01% (active)"

[[record]]
compound = "CCCC[C@H](NC(=O)[C@H]1CCCN1C)C(=O)N(C)[C@H](C[C@@H](OC(C)=O)c1nc(C(=O)N[C@@H](Cc2ccccc2)C[C@H](C)C(=O)OCC)cs1)C(C)C"
result_type = "growth"
result_value = "9.85% (active)"

[[record]]
compound = "CC(=O)O[C@H](C[C@H](C(C)C)N(C)C(=O)[C@@H](NC(=O)[C@H]1CCCCN1C)C(C)C)c1cccc(C(=O)N[C@@H](Cc2ccccc2)C[C@H](C)C(=O)O)n1"
result_type = "growth"
result_value = "7.66% (active)"

[[record]]
compound = "CC[C@H](C)[C@H](NC(=O)C12CC(NC(C)=O)(C1)C2)C(=O)N(C)[C@H](C[C@@H](OC(C)=O)c1nc(C(=O)N[C@@H](Cc2ccccc2)C[C@H](C)C(=O)OC)cs1)C(C)C"
result_type = "growth"
result_value = "11.5% (inactive)"

[[record]]
compound = "CN1CCCCC1C(C)(O)c1ccccc1 (stereo not drawn)"
result_type = "growth"
result_value = "114% (inactive)"

[[record]]
compound = "COc1cccc2c1c(C(=O)C(=O)Nc1cc(C)no1)cn2Cc1ccc(F)cc1"
result_type = "growth"
result_value = "13.4% (inactive)"

[[record]]
compound = "CCOC(=O)CCC(NC(=O)C(Cc1ccc(N(CCCl)CCCl)cc1)NC=O)C(=O)OCC (stereo not drawn)"
result_type = "growth"
result_value = "35.6% (inactive)"

[[record]]
compound = "O=C(N/N=C\\c1ccc(N(CCCl)CCCl)cc1Cl)c1cccnc1"
result_type = "growth"
result_value = "82% (inactive)"

[[record]]
compound = "O=C(Nc1ccc(Cl)cc1)Nc1nccs1"
result_type = "growth"
result_value = "15.1% (inactive)"

[[record]]
compound = "COc1cc(C=C2c3ccccc3C(=O)c3ccccc32)ccc1OCCCCOc1cc2c(cc1OC)C(=O)N1CCCC1C=N2 (stereo not drawn)"
result_type = "growth"
result_value = "-15.4% (active)"

[[record]]
compound = "CC(=O)[C@H]1CC[C@H]2[C@@H]3CC[C@H]4C[C@H](N)CC[C@]4(C)[C@H]3CC[C@]12C"
result_type = "growth"
result_value = "56% (inactive)"

[[record]]
compound = "CC(=O)ONc1ccc([N+](=O)[O-])c(C(F)(F)F)c1"
result_type = "growth"
result_value = "105% (inactive)"

[[record]]
compound = "Clc1ccc(CO/N=C(\\Cn2ccnc2)c2ccc(Cl)cc2Cl)c(Cl)c1"
result_type = "growth"
result_value = "1.68% (active)"

